Where do the numbers come from? From PubChem BioAssay.

experiment: small-molecule microarray binders of probe aEGFR, primary screen, biochemical, biotinylated probe, 635/667 nm fluorescence (AID 1097); settings: higher = more signal;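 note: probe is a biotinylated anti-EGFR antibody binding compounds printed on slides; score combines fluorescence near 667 nm and signal to noise of each spot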
EXPERIMENTAL_ENDPOINT: composite z-score

- COc1cccc([C@H]2Oc3ccc(OC)cc3C(=NO[C@@H]3O[C@H](COC(C)=O)[C@@H](OC(C)=O)[C@H](OC(C)=O)[C@H]3OC(C)=O)[C@@H]2O)c1: 0.0009

// CC(CCC(=O)OC[C@H]1O[C@H](C#Cc2ccccc2)C=C[C@@H]1Oc1ccc(C)cc1)=NO[C@H](C)c1cn([C@H](CO)Cc2ccccc2)nn1 : composite z-score value = -0.17

// COC(=O)CC=C[C@@H](C)[C@@H](C=NOCC[C@@H]1C=C[C@H](OC(C)=O)[C@@H](COC(C)=O)O1)NS(=O)(=O)c1ccc(C)cc1 : composite z-score value = 0.0511

// C#CCCCON=C1C[C@@H](O)[C@@H](O)[C@@H]2[C@@H]3C(=O)N(CCC(=O)OCC)C(=O)[C@@H]3CC[C@H]12 : composite z-score value = -0.0419

// CC(CCN1CCc2nc(-c3ccccc3)c(-c3ccccc3)cc2C1)=NOC[C@@H](O)[C@H]1O[C@@H]2OC(C)(C)O[C@@H]2[C@H]1O : composite z-score value = -0.0409

// COC(=O)C=CCCc1coc(C=CCNC(=O)OC)n1 : composite z-score value = 0.161

// O=C1[C@H]2[C@H]3[C@H](O)[C@H](O)CC(=NOC[C@@H](O)COCc4ccco4)[C@@H]3CC[C@H]2C(=O)N1C[C@@H]1CCCO1 : composite z-score value = -0.344

----------
test: small-molecule microarray binders of probe aXIP, primary screen, biochemical, NeuroSMM set, 635/667 nm fluorescence (AID 1119); conditions: higher = more signal, called active from +8 up or from −8 down;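 note: probe is the protein aXip251-270 applied at 1 µg/mL to compound-printed slides; binding of probe to printed compounds measured as 667 nm fluorescence plus signal to noise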
Quick reference for composite Z-score among some compounds
I'd appreciate a reply containing only the number, no unit.

* CC(C)=CCCC(C)=CCON=C1C[C@@H](O)[C@@H](O)[C@@H]2[C@@H]3C(=O)N(C(C)(C)C)C(=O)[C@@H]3CC[C@H]12 | 1.26
* C=C(C)C(=O)OCC1CN2[C@@H](CC[C@@H](C)[C@@H]2c2ccc(Br)cc2)C(=O)O1 (some centres not stated) | -0.168
* O=C(NN=C1C[C@@H](O)[C@@H](O)[C@@H]2[C@@H]3C(=O)N(C[C@@H]4CCCO4)C(=O)[C@@H]3CC[C@H]12)OCc1ccccc1 | 0.42
* CC(=O)OC[C@H]1O[C@H](CCON=C2[C@H]3CCn4c(=O)n(-c5ccccc5)c(=O)n4[C@H]3[C@H](O)[C@@H]3O[C@H]23)C=C[C@@H]1OC(C)=O | 0.22
* COc1ccc(COC(=O)NN=C2C[C@@H](O)[C@@H](O)[C@@H]3[C@@H]4C(=O)N(c5cccc(Oc6ccccc6)c5)C(=O)[C@@H]4CC[C@@H]23)cc1 | 0.807

// CCCNC(=O)OC[C@H]1O[C@H](CCON=C(C)CCN2CCc3nc(CC)c(CC)cc3C2)C=C[C@@H]1Oc1ccc(OC)cc1 : composite Z-score value = 0.0421

// CCOC(=O)[C@H](CC(C)C)NC(=O)CCC1CC(OC(=O)NCc2cccc3ccccc23)CC2(CCCC(COC(=O)NCCc3ccc(Cl)cc3)O2)O1 (some centres not stated) : composite Z-score value = -0.536

----------
Quick reference for composite z-score among some molecules
experiment: binders of probe aFGF10 on microarray, primary screen, stem cell growth factor project, biochemical, small-molecule microarray, fluorescence 635/667 (AID 1071); details: higher = more signal;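 note: score merges 667 nm spot intensity and signal to noise from triplicate slides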
I'd appreciate a reply containing only the number, no unit.

In the examples that follow, each entry is paired with its recorded composite z-score.
- CCOC(=O)[C@H](Cc1ccccc1)NC(=O)CCC1CC(OC(=O)NCCc2ccc(F)cc2)CC2(CCCC(COC(=O)NCc3ccccc3)O2)O1 (some centres not stated): 0.854
- COC(=O)C=CCCc1coc(C=CCNC(=O)OC)n1: 0.833
- O=c1n(Cc2cc3c(cc2Cl)OCO3)c(=O)n2n1CC[C@@H]1C(=NOCc3ccccc3)[C@H]3O[C@H]3[C@@H](O)[C@@H]12: 0.47
- CCC(=O)[C@@]1(O)C(=O)N2C(=C3C(=O)OCC[C@@H]31)N(Cc1ccccc1)C(C)=C(C(=O)OC)[C@H]2c1ccccc1: 0.342
- CCCNC(=O)OC[C@H]1O[C@H](CCON=C(C)CCC(=O)OC[C@H]2O[C@H](c3ccccc3)C=C[C@@H]2Oc2ccc(OC)cc2)C=C[C@@H]1Oc1ccc(OC)cc1: -0.178

// O=C1[C@H]2[C@H]3[C@H](O)[C@H](O)CC(=NOC[C@@H](O)COCc4ccco4)[C@H]3CC[C@H]2C(=O)N1Cc1ccccc1 : composite z-score value = 0.17

// COC(=O)[C@H]1O[C@@H](c2c(OC)c(OC)c(C)c(OC)c2OC)[C@H](C)[C@@H](O)[C@H]1C : composite z-score value = 0.915

----------
test: binders from COS7 lysate, DM2A8 probe, primary screen, torsin A project, cell lysate, small-molecule microarray, fluorescence 635/667 (AID 1065); details: higher = more signal, COS7 lysate expressing mutant human TOR1A
Use 0.3 as the dividing line for composite z-score, with the line itself on the Condition met side and lower values as Condition not met.

Reference set, count: 5
* COc1ccc(O[C@H]2C=C[C@@H](c3ccccc3)O[C@@H]2CON=C(C)CCN2CCc3nc(-c4ccccc4)c(-c4ccccc4)cc3C2)cc1 | Condition not met
* CO[C@H]1COC(=O)[C@@H](C)COC(=O)[C@H](COCc2ccccc2)NC(=O)CC=C[C@H]1C | Condition met
* CCCNC(=O)OC[C@H]1O[C@H](c2ccccc2)C=C[C@@H]1Oc1ccc(OC)cc1 | Condition not met
* C[C@@H](ON=C1[C@H]2CCn3c(=O)n(-c4ccccc4)c(=O)n3[C@H]2[C@H](O)[C@@H]2O[C@H]12)c1cn([C@@H]2COC[C@H]2O)nn1 | Condition met
* O=C(NN=C1C[C@@H](O)[C@@H](O)[C@@H]2[C@@H]3C(=O)N(Cc4ccccc4)C(=O)[C@@H]3CC[C@@H]12)OCc1ccccc1 | Condition met

[ask] Decide: is the reported value of composite z-score for O=C1C2=CC[C@H]3C(=O)N(c4cccc(Oc5ccccc5)c4)C(=O)[C@H]3[C@H]2[C@H](O)[C@@H]2O[C@H]12 equal to or greater than 0.3?
[reply] Condition met

[ask] Decide: is the reported value of composite z-score for CCCCC#C[C@@H]1C=C[C@H](OC(C)=O)[C@@H](COC(C)=O)O1 equal to or greater than 0.3?
[reply] Condition met

----------
assay: binders from COS7 lysate, DM2A8 probe, primary screen, torsin A project, cell lysate, small-molecule microarray, fluorescence 635/667 (AID 1065); conditions: higher = more signal, COS7 lysate expressing mutant human TOR1A
EXPERIMENTAL_ENDPOINT: composite z-score
I'd appreciate a reply containing only the number, no unit.

In the examples that follow, each entry is paired with its recorded composite z-score.
• CC(C)(C)N1C(=O)[C@H]2[C@H]3[C@H](O)[C@H](O)CC(=O)[C@H]3CC[C@H]2C1=O = 1.21
• Cc1ccc(S(=O)(=O)N[C@H]2COC(=O)CC=C[C@H](C)[C@@H](NS(=O)(=O)c3ccc(C)cc3)COC(=O)CC=C[C@@H]2C)cc1 = 0.391
• O=C1C=C[C@@H](O)[C@@H]2[C@@H]3C(=O)N(C[C@@H]4CCCO4)C(=O)[C@@H]3CC[C@@H]12 = 0.0078

// below: composite z-score requested for another compound
// COCCNC(=O)OCC1CCCC2(CC(OC(=O)NCc3ccc4c(c3)OCO4)CC(CCC(=O)N[C@@H](C)C(=O)OC)O2)O1 (some centres undefined) : composite z-score value = 0.362

----------
test system: Wnt5a (protein binding on small-molecule microarray); test: Wnt5a binders on small-molecule microarray, primary screen, biophysical, 635/667 nm fluorescence (AID 1142); settings: 635 nm fluorescence, higher = more signal;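 note: fluorescence read at 667 nm with signal to noise per printed feature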
EXPERIMENTAL_ENDPOINT: composite z-score
I'd appreciate a reply containing only the number, no unit.

In the examples that follow, each entry is paired with its recorded composite z-score.
- CO[C@H]1COC(=O)CC=C[C@@H](C)[C@H](OC)COC(=O)[C@@H]2CCCN2C(=O)CC=C[C@@H]1C: -0.0779
- COC(=O)C=CCCc1coc(C=CCNC(=O)OC)n1: 0.4
- CCOC(=O)[C@H](Cc1ccccc1)NC(=O)CCC1CC(OC(=O)NCCc2ccc(F)cc2)CC2(CCCC(COC(=O)NCCc3ccccc3OC)O2)O1 (stereo partly drawn): 0.359
- C[C@H]1CC[C@H]2C(=O)O[C@H](COc3ccc(C(C)(C)C)cc3)CN2[C@@H]1c1ccc(Br)cc1: -0.185
- C[C@H]1CC[C@H]2C(=O)OC(CO)CN2[C@@H]1c1ccc(Br)cc1 (stereo partly drawn): 0.0096
- C[C@@H]1CC[C@H]2C(=O)O[C@@H](Cc3ccccc3)CN2[C@H]1c1ccc(Br)cc1: -0.0729

// molecule CC(C)CON=C1C[C@@H](O)[C@@H](O)[C@@H]2[C@@H]3C(=O)N(c4cccc(Oc5ccccc5)c4)C(=O)[C@@H]3CC[C@@H]12 , assay Wnt5a (protein binding on small-molecule microarray), composite z-score value: 0.0462

// molecule CCCNC(=O)OC[C@H]1O[C@H](c2ccccc2)C=C[C@@H]1Oc1ccc(OC)cc1 , assay Wnt5a (protein binding on small-molecule microarray), composite z-score value: -0.0663
